These measurements were taken from patent US20170189513A1.

# System Tested: HLA-A*24 (human)
# Assay Method Text: UV-ligand exchange, b2m ELISA
Test Readout: peptide exchange yield

Binder: YYKSTSSAF [… (SEQ ID No 218)]
peptide exchange yield: 50 to 75%
--
Binder: RYLNKAFHI [… (SEQ ID No 284)]
peptide exchange yield: 50 to 75%
--
Binder: EYINQGDLHEF [… (SEQ ID No 275)]
peptide exchange yield: 50 to 75%
--
Binder: FFPPTRQMGLLF [… (SEQ ID No 217)]
peptide exchange yield: > 75%
--
Binder: VFTSTARAF [… (SEQ ID No 183)]
peptide exchange yield: 50 to 75%

What does the record list as peptide exchange yield for IFPQFLYQF [… (SEQ ID No 186)] ?
> 75%

Now consider RYPDNLKHLYL [… (SEQ ID No 280)] .
> 75%
